Source: patent US8624002B2

measurement-protocol: Accelerated stability screening monitored by SEC
Type: physicochemical
condition-parameters: SEC, 7 days storage at 50° C.
quantity-measured: Fragment (%)

1) Hu2B5.6: humanized 2B5-8.0; VH SEQ ID NO 70, VL SEQ ID NO 71 (antibody, V domains shown) VH: EVQLVQSGAEVKKPGASVKVSCKASGYTFTKYWLGWVRQAPGQGLEWMGDIYPGYDYTHYNEKFKDRVTLTTDTSTSTAYMELSSLRSDDTAVYYCARSDGSSTYWGQGTLVTVSS VL: DVVMTQTPLSLPVTPGEPASISCTSSQNIVHSNGNTYLEWYLQKPGQSPQLLIYKVSNRFSGVPDRFSGSGSGTDFTLKISRVEAEDVGVYYCFQVSHVPYTFGGGTKVEIKR	4.0253
